Origin of values: ChEMBL document CHEMBL1201861

Reported values of IC50 for individual entries
System: Capan-2;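 also: Capan-2 cell growth inhibition, read out with a viability assay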
Assay: cells
Assay type: functional, cell-based, Homo sapiens
Settings: Homo sapiens, Capan-2
Description: SANGER: Inhibition of human Capan-2 cell growth in a cell viability assay.
assayEndpoint: IC50 (nM)

molecule	prefixOperator	numericResult
CN(Cc1cnc2nc(N)nc(N)c2n1)c1ccc(C(=O)N[C@@H](CCC(=O)O)C(=O)O)cc1 [METHOTREXATE]	>	200
C=CCNC1=C2C[C@@H](C)C[C@H](OC)[C@H](O)[C@@H](C)/C=C(\C)[C@H](OC(N)=O)[C@@H](OC)/C=C\C=C(/C)C(=O)NC(=CC1=O)C2=O [TANESPIMYCIN]	=	193
CN(C)C/C=C/C(=O)Nc1cc2c(Nc3ccc(F)c(Cl)c3)ncnc2cc1O[C@H]1CCOC1 [AFATINIB]	>	500
COC(=O)CNC(=O)C(=O)OC	=	338000

* * *

Tested on: NB10;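 also: growth inhibition of NB10 cells, read out by a cell viability assay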
Test: cells
Assay type: functional, cell-based, Homo sapiens
Details: Homo sapiens, NB10
Description: SANGER: Inhibition of human NB10 cell growth in a cell viability assay.
assayEndpoint: IC50 (µM)

> print(dat)
                                   compound   tgt  prefixoperator  numericresult
1  O=C(c1cc(Cc2n[nH]c(=O)c3ccccc23)ccc1F)N1CCN(C(=O)C2CC2)CC1 [OLAPARIB]  NB10               >              5
2  Nc1ccn([C@@H]2O[C@H](CO)[C@@H](O)[C@@H]2O)c(=O)n1 [CYTARABINE]  NB10               =          0.188
3  Cn1cc(C2=C(c3ccc(Cl)cc3Cl)C(=O)NC2=O)c2ccccc21 [SB-216763]  NB10               >             10
4  Cc1cc(Nc2cc(N3CCN(C)CC3)nc(Sc3ccc(NC(=O)C4CC4)cc3)n2)n[nH]1 [TOZASERTIB]  NB10               >              2
5  Cn1cncc1[C@@](N)(c1ccc(Cl)cc1)c1ccc2c(c1)c(-c1cccc(Cl)c1)cc(=O)n2C [TIPIFARNIB]  NB10               =           11.7

* * *

Readings of pIC50 for the listed molecules
Tested on: 23132-87
Experiment: cells
Assay type: functional, cell-based, Homo sapiens
Conditions: Homo sapiens
Description: SANGER: Inhibition of human 23132-87 cell growth in a cell viability assay.
pIC50: −log10 of the molar value.
assayEndpoint: pIC50

> print(dat)
                                   molecule  assayendpoint  result
1  CC(=O)O[C@@H]1[C@@H](OC(C)=O)[C@@H](O)[C@H](Oc2c(-c3ccc(O)cc3)oc3cc(O)cc(O)c3c2=O)O[C@H]1C          pIC50  < 5.00
2  O=c1cc(-c2cccc3c2Sc2ccccc2S3)oc(N2CCOCC2)c1 [KU-55933]          pIC50  < 5.00
3  Cc1cc([C@@H](C)Nc2ccccc2C(=O)O)c2nc(N3CCOCC3)cc(=O)n2c1 [AZD-6482]          pIC50  < 5.29
4                     COC(=O)CNC(=O)C(=O)OC          pIC50  < 2.40
5  Cn1cc(C2=C(c3ccc(Cl)cc3Cl)C(=O)NC2=O)c2ccccc21 [SB-216763]          pIC50  < 5.00
